- Assayed Target: ATP-dependent translocase ABCB1 (Homo sapiens, UniProt P08183)
- Sequence (P08183 whole entry): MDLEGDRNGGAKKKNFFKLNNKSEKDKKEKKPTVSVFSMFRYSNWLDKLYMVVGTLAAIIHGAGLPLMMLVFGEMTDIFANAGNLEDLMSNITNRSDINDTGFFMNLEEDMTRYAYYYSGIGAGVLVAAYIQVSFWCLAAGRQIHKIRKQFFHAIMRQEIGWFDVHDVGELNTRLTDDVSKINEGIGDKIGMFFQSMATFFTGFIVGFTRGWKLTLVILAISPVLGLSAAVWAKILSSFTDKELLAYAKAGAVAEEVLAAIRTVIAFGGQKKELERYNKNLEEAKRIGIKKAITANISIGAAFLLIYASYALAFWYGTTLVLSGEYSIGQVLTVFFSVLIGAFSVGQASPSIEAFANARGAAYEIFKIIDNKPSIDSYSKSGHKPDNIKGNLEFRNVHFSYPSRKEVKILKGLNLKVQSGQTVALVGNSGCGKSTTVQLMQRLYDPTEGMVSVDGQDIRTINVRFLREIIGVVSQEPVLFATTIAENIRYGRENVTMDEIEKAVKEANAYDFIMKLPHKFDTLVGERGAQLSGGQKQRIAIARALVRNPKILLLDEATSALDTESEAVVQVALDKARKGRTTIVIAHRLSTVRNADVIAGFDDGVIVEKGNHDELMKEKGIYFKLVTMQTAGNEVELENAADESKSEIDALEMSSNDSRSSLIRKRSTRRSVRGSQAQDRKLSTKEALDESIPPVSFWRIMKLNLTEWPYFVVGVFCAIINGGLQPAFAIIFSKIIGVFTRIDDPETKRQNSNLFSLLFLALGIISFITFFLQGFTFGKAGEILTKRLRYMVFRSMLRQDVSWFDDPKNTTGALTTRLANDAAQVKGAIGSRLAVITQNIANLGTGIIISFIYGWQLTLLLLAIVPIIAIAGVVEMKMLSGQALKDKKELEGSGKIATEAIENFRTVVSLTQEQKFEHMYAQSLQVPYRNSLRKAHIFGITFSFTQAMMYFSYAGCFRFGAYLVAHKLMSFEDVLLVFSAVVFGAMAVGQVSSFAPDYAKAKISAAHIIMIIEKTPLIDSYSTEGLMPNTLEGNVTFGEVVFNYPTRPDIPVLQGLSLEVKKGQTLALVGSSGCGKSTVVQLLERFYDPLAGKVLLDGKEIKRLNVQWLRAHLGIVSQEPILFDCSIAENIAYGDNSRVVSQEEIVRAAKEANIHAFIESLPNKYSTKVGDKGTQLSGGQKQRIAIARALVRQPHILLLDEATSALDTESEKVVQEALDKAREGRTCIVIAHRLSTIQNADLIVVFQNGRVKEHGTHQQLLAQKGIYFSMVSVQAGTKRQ
- Experimental Details: TP_TRANSPORTER: uptake in K562 and K562/ADR cell
- Type: functional, cell-based
Measurement Kind: Activity

CC(C)(C)NCC(O)COc1cccc2c1CC(O)C(O)C2 (centres undefined) [NADOLOL] : substrate [+]
CCN(CC)C(=O)Nc1ccc(OCC(O)CNC(C)(C)C)c(C(C)=O)c1 (centres undefined) [CELIPROLOL] : substrate [+]
CC(C)(C)NC[C@H](O)COc1nsnc1N1CCOCC1 [TIMOLOL] : substrate [+]
CCCC(=O)Nc1ccc(OCC(O)CNC(C)C)c(C(C)=O)c1 (centres undefined) [ACEBUTOLOL] : substrate [+]
